Can you tell me EC50 for the items I'm about to list?
# Tested on: P. aegyptiaca seeds
# Test Name: P. aegyptiaca seed germination assay
# Assay type: in vivo, Phelipanche aegyptiaca
# Recorded Conditions: Phelipanche aegyptiaca; source data of Fig. 2c and Supplementary Fig. 8b; average of 3; read-out: P. aegyptiaca germination EC50 values, source data average (converted)
One number for each entry, in nM.

1) CC1=C[C@H](OC(=O)N2CCN(C(=O)COc3ccc(Br)cc3C)CC2)OC1=O [(S)-4a] :: 0.021
2) CC1=CC(OC(=O)N2CCN(C(=O)COc3c(F)c(F)c(F)c(F)c3F)CC2)OC1=O (stereo not shown) :: 48.2
3) CC1=CC(OC(=O)N2CCN(C(=O)COc3ccc(Br)cc3C)CC2)OC1=O (stereo not shown) :: 0.0628

Here is another compound to look at.
// EC50 lookup, compound = CC1=C[C@@H](OC(=O)N2CCN(C(=O)COc3ccc(Br)cc3C)CC2)OC1=O [(R)-4a] , result: 1270
